All figures here come from patent US20230242624A1.

target: SARS-CoV-2 Spike (S) protein on vesicular stomatitis virus (VSV) pseudoviruses (SARS-CoV-2, UniProt P0DTC2 14-1273); assay: cell-based or functional assay
endpoint_name: IC50, pseudovirus entry assay (luciferase, HEK 293T-ACE2 cells)

| binder | result |
| --- | --- |
| NI-607.426_F11 (antibody, V domains shown) VH: QVQLVESGGGLVQPGGSLRLSCAASGFTFSSYWMSWVRQAPGKGLEWVANIKQDGSEKYYVDSVKGRFTISRDNAKNSLYLQMNSLRAEDTAVYYCARGLVGQWLGVDYWGQGTLVTVSS VL: QSVLTQPHSVSESPGKTVTISCTGSSGSIASNYVQWYQQRPGSAPTTVIYEDNQRPSGVPDRFSGSIDSSSNSASLTISGLKTEDEADYYCQSYDSSNWVFGGGTKLTVL | > 100 µg/mL |
